target_desc: HLA-A*11:01
test_summary: IEDB peptide-MHC binding, purified MHC/direct/fluorescence; filed as Kd, often an IC50 or EC50 that approximates it; bounds were set here for any values at or beyond the usual limits of such assays
recorded_conditions: source organism: Brucella abortus 2308
measured_attribute: pKd
Numbers only, as −log10 of the molar value.

Exercise: Reported pKd, sequence `RQMLHEIGR` : ____
Solution: 6.18

###

target_desc: HLA-A*69:01
test_summary: IEDB peptide-MHC binding, purified MHC/competitive/fluorescence; filed as Kd, often an IC50 or EC50 that approximates it; bounds were set here for any values at or beyond the usual limits of such assays
recorded_conditions: source organism: Vibrio vulnificus
measured_attribute: Kd

Exercise: Using the record for `DEWECTRDD` , report its Kd.
Solution: ≥ 20 µM

###

target_desc: HLA-B*46:01
test_summary: IEDB peptide-MHC binding, purified MHC/competitive/fluorescence; filed as Kd, often an IC50 or EC50 that approximates it; bounds were set here for any values at or beyond the usual limits of such assays
recorded_conditions: source organism: Listeria monocytogenes EGD-e
measured_attribute: Kd

Exercise: Requested read-out Kd, target or system HLA-B*46:01, entry `LAIVTTPLV`
Solution: ≥ 20 µM

###

target_desc: HLA-B*18:01
test_summary: IEDB peptide-MHC binding, purified MHC/competitive/fluorescence; filed as Kd, often an IC50 or EC50 that approximates it; bounds were set here for any values at or beyond the usual limits of such assays
recorded_conditions: source organism: Bacillus cereus ATCC 4342
measured_attribute: Kd

Exercise: // lookup Kd for `GLFWGGIWY`
Solution: ≥ 20 µM

###

target_desc: HLA-B*15:01
test_summary: IEDB peptide-MHC binding, purified MHC/direct/fluorescence; filed as Kd, often an IC50 or EC50 that approximates it; bounds were set here for any values at or beyond the usual limits of such assays
recorded_conditions: source organism: Mycobacterium tuberculosis variant bovis
measured_attribute: pKd
Give bare numbers, as −log10 of the molar value.

Exercise: # query: pKd of entry `WQGDTGITY`
Solution: 6.10

###

target_desc: HLA-B*15:01
test_summary: IEDB peptide-MHC binding, purified MHC/competitive/radioactivity; filed as Kd, often an IC50 or EC50 that approximates it; bounds were set here for any values at or beyond the usual limits of such assays
recorded_conditions: source organism: Dengue virus 1 Brazil/97-11/1997
measured_attribute: pKd
One number for each entry, as −log10 of the molar value.

[
  {
    "biosequence": "SQKTTWLPVL",
    "target_desc": "HLA-B*15:01",
    "pKd": 7.04
  },
  {
    "biosequence": "SQHNYRPGYF",
    "target_desc": "HLA-B*15:01",
    "pKd": 8.03
  }
]

// switching to the query sequence
Exercise: For the record `KMRPMFAVG` , what value of pKd is listed for HLA-B*15:01?
Solution: 7.46

###

Provide the reported Kd of each item.
target_desc: HLA-B*53:01
test_summary: IEDB peptide-MHC binding, purified MHC/competitive/radioactivity; filed as Kd, often an IC50 or EC50 that approximates it; bounds were set here for any values at or beyond the usual limits of such assays
recorded_conditions: source organism: SARS coronavirus Tor2
One number for each entry, in nM.

[
  {
    "biosequence": "VPANSTVLSF",
    "measured_attribute": "Kd",
    "meas_value": 95.2
  }
]

Shift focus to the following entry.
Exercise: Need Kd, item `MPASWVMRIM`
Solution: 62.8

###

target_desc: HLA-A*23:01
test_summary: IEDB peptide-MHC binding, purified MHC/direct/fluorescence; filed as Kd, often an IC50 or EC50 that approximates it; bounds were set here for any values at or beyond the usual limits of such assays
recorded_conditions: source organism: Vibrio cholerae O139
measured_attribute: Kd

Exercise: Request the reported Kd associated with `EKDSNHNVL`
Solution: ≥ 20 µM

###

target_desc: HLA-A*33:01
test_summary: IEDB peptide-MHC binding, purified MHC/competitive/radioactivity; filed as Kd, often an IC50 or EC50 that approximates it; bounds were set here for any values at or beyond the usual limits of such assays
recorded_conditions: source organism: Lymphocytic choriomeningitis virus (strain Armstrong)
measured_attribute: pKd
One number for each entry, as −log10 of the molar value.

[
  {
    "biosequence": "QFKQDSKYSH",
    "meas_value": 5.54
  }
]

Exercise: Consider the sequence `TLGNFSWFPH` and give its measured pKd.
Solution: 4.90

###

target_desc: HLA-A*01:01
test_summary: IEDB peptide-MHC binding, purified MHC/competitive/radioactivity; filed as Kd, often an IC50 or EC50 that approximates it; bounds were set here for any values at or beyond the usual limits of such assays
recorded_conditions: source organism: Dengue virus 1 Brazil/97-11/1997
So I've got a bunch of sequences here, and I need their pKd values.
Numbers only, as −log10 of the molar value.

Recorded pKd, per entry:
[
  {
    "biosequence": "TSEIQLTDY",
    "pKd": 6.49
  },
  {
    "biosequence": "LSRKTFDTEY",
    "pKd": 6.30
  },
  {
    "biosequence": "PTSEIQLTDY",
    "pKd": 6.59
  }
]

Exercise: What does the data say about its pKd? Entry: `YSQVNPLTL`
Solution: 6.00

###

target_desc: HLA-B*08:01
test_summary: IEDB peptide-MHC binding, purified MHC/direct/fluorescence; filed as Kd, often an IC50 or EC50 that approximates it; bounds were set here for any values at or beyond the usual limits of such assays
recorded_conditions: source organism: Vibrio cholerae
pKd: −log10 of the molar value.
measured_attribute: pKd

Consider the following illustrative entries.
[
  {
    "biosequence": "DTDISQLHH",
    "pKd": "≤ 4.70"
  },
  {
    "biosequence": "IHYAGWVSL",
    "pKd": "≤ 4.70"
  }
]

Exercise: Which pKd reading was recorded for the sequence `YFRNSGMTY` ?
Solution: ≤ 4.70

###

target_desc: HLA-A*11:01
test_summary: IEDB peptide-MHC binding, purified MHC/competitive/radioactivity; filed as Kd, often an IC50 or EC50 that approximates it; bounds were set here for any values at or beyond the usual limits of such assays
recorded_conditions: source organism: Vaccinia virus WR
measured_attribute: pKd
Numbers only, as −log10 of the molar value.

[
  {
    "biosequence": "NISFKSINK",
    "measured_attribute": "pKd",
    "meas_value": 7.38
  },
  {
    "biosequence": "KIEEIEKVEK",
    "measured_attribute": "pKd",
    "meas_value": 6.15
  },
  {
    "biosequence": "AQYKCVTIK",
    "measured_attribute": "pKd",
    "meas_value": 7.43
  }
]

Hi, could you look up pKd for each item in my list?
1. GIEFADNDR
2. LLSCIRNASK
3. SMASLKSLY
4. GTGLWTHDK

Solution:
5.76
7.53
7.42
9.44

Dear colleague, could you please provide pKd for the sequences listed below?
1. GLKIEEIEK
2. QVKDNIISR
3. TVLPHLCLDY
4. AMENLKAMLY

Solution:
5.19
6.73
8.52
6.65

List pKd for every entry below, keeping the order given.
1. LFYPSMFTLR
2. YVTLNASQY
3. NFLRSIAMLK
4. ESLLKETIQK
5. GAVVKSDNK
6. ISGIGTFLHY
7. IMNLEMIDER

Solution:
1: 5.13; 2: 5.95; 3: 6.50; 4: 8.01; 5: 6.11; 6: 6.44; 7: 4.72

# batch size: 8; output pKd per entry
1. KIAPGIADIR
2. RLVEEFFNR
3. LTPIFSDLLK
4. KSSSIDVDK
5. TLVVISVIFY
6. MAVEVGSIR
7. LFTSTNDKIK
8. TTDDLVKSY

Solution:
[5.35, 7.06, 8.63, 6.79, 5.86, 7.40, 6.04, 6.13]

###

target_desc: HLA-A*23:01
test_summary: IEDB peptide-MHC binding, purified MHC/competitive/radioactivity; filed as Kd, often an IC50 or EC50 that approximates it; bounds were set here for any values at or beyond the usual limits of such assays
recorded_conditions: source organism: Triticum aestivum
measured_attribute: Kd (µM)
One number for each entry, in µM.

Exercise: Given the sequence `QFLGQQQPF` , what is its reported Kd?
Solution: 7.75

###

target_desc: HLA-B*57:01
test_summary: IEDB peptide-MHC binding, purified MHC/competitive/fluorescence; filed as Kd, often an IC50 or EC50 that approximates it; bounds were set here for any values at or beyond the usual limits of such assays
recorded_conditions: source organism: Human immunodeficiency virus 1
measured_attribute: Kd
A complete answer gives the number and then names the unit.

Exercise: Looking for the measured Kd of `RSLYNTIATLY` , can you help?
Solution: 128 nM
